# TEST SUMMARY: Pharmacokinetic study in mice
# CONDITION SUMMARY: male, CD-1, mouse, brain, ip, 10 mg/kg
MEASURED ATTRIBUTE: Cmax (ng/g)
One number for each entry, in ng/g.

MOL SMILES: CC(C)Cn1ncc2cc(Cc3ccc(F)cc3F)c(C(=O)NCCN(C)C)cc21
SCALE UNIT: ng/g
MEASURED: 658

# input for lookup
Task: For the compound CN(C)CCNC(=O)c1cc2c(cnn2CC2CCCCC2)cc1Cc1ccc(F)cc1F , report Cmax.
Result: 343

----------
# TEST SUMMARY: Pharmacokinetic study in mice
# CONDITION SUMMARY: male, CD-1, mouse, serum, ip, 30 mg/kg
MEASURED ATTRIBUTE: AUC(0-inf) (ng·h/mL)
Answers are plain numbers, in ng·h/mL.

Task: Quickly give me recorded AUC(0-inf) for O=c1ncn2nc(Sc3ccc(F)cc3F)ccc2c1-c1c(Cl)cccc1Cl [neflamapimod, reference compound]
Result: 18700

----------
# TEST SUMMARY: Pharmacokinetic study in mice
# CONDITION SUMMARY: male, CD-1, mouse, brain, ip, 10 mg/kg
MEASURED ATTRIBUTE: MRT (h)
Numbers only, in h.

COMPOUND: CN(C)CCNC(=O)c1cc2c(cnn2CC2CCCCC2)cc1Cc1ccc(F)cc1F [Compound 95]
SCALE UNIT: h
MEASURED: 2.14

Task: Read the entry CC(C)Cn1ncc2cc(Cc3ccc(F)cc3F)c(C(=O)NCCN(C)C)cc21 [Compound 94] and write its reported MRT.
Result: 1.71

----------
Please go through the items and note down their IC50.
# TESTED ON: human p38α MAPK (Homo sapiens)
# Sequence (Q16539 whole entry): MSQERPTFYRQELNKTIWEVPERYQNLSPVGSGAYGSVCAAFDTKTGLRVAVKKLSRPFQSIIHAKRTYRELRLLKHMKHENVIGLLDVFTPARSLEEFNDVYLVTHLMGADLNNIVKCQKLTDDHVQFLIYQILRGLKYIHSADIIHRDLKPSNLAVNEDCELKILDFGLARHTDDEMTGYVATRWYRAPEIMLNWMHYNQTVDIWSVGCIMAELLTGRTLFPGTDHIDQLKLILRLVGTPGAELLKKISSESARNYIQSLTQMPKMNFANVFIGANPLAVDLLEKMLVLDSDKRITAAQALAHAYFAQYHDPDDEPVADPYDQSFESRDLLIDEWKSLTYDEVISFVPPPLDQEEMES
# TEST SUMMARY: biochemical
# CONDITION SUMMARY: p38α MAPK IC50 ± SEM, two independent experiments, each in triplicate
Numbers only, in nM.

COMPOUND: CC(C)CCn1ncc2cc(Oc3ccc(F)cc3F)c(C(=O)NCCN(C)C)cc21 [Compound 85]
SCALE UNIT: nM
MEASURED: 189

Hello, I would appreciate it if you could give IC50 for each entry below.
1. CN(C)CCNC(=O)c1cc2c(cnn2C2C=CCCC2)cc1Oc1ccc(F)cc1F (stereo not drawn) [Compound 83]
2. CN(C)CCNC(=O)c1cc2c(cnn2Cc2ccccc2)cc1Oc1ccc(F)cc1F [Compound 86]

Result:
1. 88
2. 739

----------
# TEST SUMMARY: Pharmacokinetic study in mice
# CONDITION SUMMARY: male, CD-1, mouse, serum, ip, 2.5 mg/kg
MEASURED ATTRIBUTE: Cmax (µg/mL)
Give bare numbers, in µg/mL.

Task: Identify Cmax associated with the molecule CCN(C)C(=O)Oc1cccc([C@H](C)N(C)C)c1 [rivastigmine, reference compound]
Result: 0.142

----------
Please go through the items and note down their RA at 100 µM.
# Tested on: hAChE
Numbers only, in %.

Previously resolved entries follow.
COMPOUND: O=C(NCCN1CCOCC1)c1cc2c(cnn2CC2CCCCC2)cc1Oc1ccc(F)cc1F [Compound 80]
RA at 100 µM / %: 51.9
//
COMPOUND: CC(C)Cn1ncc2cc(S(=O)(=O)c3ccc(F)cc3F)c(C(=O)NCCN(C)C)cc21 [Compound 93]
RA at 100 µM / %: 98.0
//
COMPOUND: COCC1CCCN(CCNC(=O)c2cc3nn(CC4CCCCC4)cc3cc2Oc2ccc(F)cc2F)C1 (stereo not drawn) [Compound 102]
RA at 100 µM / %: 50.7
//
COMPOUND: CN(C)CCNC(=O)c1cc2c(cnn2CC2CCC2)cc1Oc1ccc(F)cc1F [Compound 84]
RA at 100 µM / %: 51.9

Then this compound:
Task: Determine its reported RA at 100 µM: O=C(NCCn1cccc1)c1cc2c(cnn2CC2CCCCC2)cc1Oc1ccc(F)cc1F [Compound 81]
Result: 58.7
